runDescription: recombinant barcode read abundance after kanamycin selection (control-corrected) (log10(CPM+1)); higher = more efficient recombination; sequences stand for … in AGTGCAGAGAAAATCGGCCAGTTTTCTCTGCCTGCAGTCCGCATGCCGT…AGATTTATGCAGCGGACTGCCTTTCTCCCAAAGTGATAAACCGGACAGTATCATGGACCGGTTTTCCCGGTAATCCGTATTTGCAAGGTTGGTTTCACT; site = the 11-nt target;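 further: IS621 recombinase and bridge RNA in Escherichia coli cells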
Please note: label 1 applies when recombinant barcode read abundance (log10) is 0.2 or greater, and label 0 applies otherwise.

| sequenceRecord | assignedLabel |
| --- | --- |
| TCGCACCCTTGGGTTCTAACCTGTTGCGA (site TCGAACCCTTC) | label 1 |
| ACGAGTCCTTGGGTTCTAACCTGTTGCGT (site ACGAGTCCTAC) | label 1 |
| AGGTTTGCTTGGGTTCTAACCTGTTGCTT (site GTCACAACTCG) | label 0 |
| TCTAATTCTTGGGTTCTAACCTGTTGCGT (site TCTCATTCTAC) | label 0 |
| CACGAGCCTTGGGTTCTAACCTGTTGCCT (site CACGAGTCTAG) | label 1 |
| GCTTCTTCTTGGGTTCTAACCTGTTGCCT (site GATTCTTCTAG) | label 1 |
| CTGTGGACTTGGGTTCTAACCTGTTGCAG (site CTGTGGACTCT) | label 1 |
| GTGTACCCTTGGGTTCTAACCTGTTGCAC (site AGTATAACTCA) | label 0 |
| GTCGTACCTTGGGTTCTAACCTGTTGCCT (site GTCGTACCTAG) | label 1 |
| AGGGCATCTTGGGTTCTAACCTGTTGCCT (site AGGGCGTCTCG) | label 1 |
| TGTGAGTCTTGGGTTCTAACCTGTTGCAT (site TGTGAGTCTAT) | label 1 |
| TAGCCCTCTTGGGTTCTAACCTGTTGCCG (site TAGTCCGCTCG) | label 0 |
